Property Name: melting point

INSERT INTO assay_data (molecule, property_name, result) VALUES
  ('CCCOC(C)=O [propyl_acetate]', 'melting point', '-95 °C'),
  ('COCCOCCOC [2-methoxyethyl_ether]', 'melting point', '-64 °C'),
  ('CC(=O)NC1CCCCC(NC(C)=O)CCCC1 (stereo unspecified) [N,N''-cyclodecane-1,6-diyldiacetamide]', 'melting point', '256 °C'),
  ('Oc1ccccc1O [catechol]', 'melting point', '106 °C'),
  ('N#CCC(N)=O [cyanoacetamide]', 'melting point', '120 °C'),
  ('COc1ccccc1N/N=C1\C(=O)N(CN2CCCCC2)N=C1C', 'melting point', '149 °C'),
  ('Cc1ccnc(NS(=O)(=O)c2ccc(N)cc2)n1 [sulfamerazine]', 'melting point', '236 °C'),
  ('CC1(C)COB(B2OCC(C)(C)CO2)OC1 [bis(neopentyl glycolato)diboron]', 'melting point', '183 °C'),
  ('O=Cc1cnc2ccccc2c1 [quinoline-3-carboxaldehyde]', 'melting point', '70 °C'),
  ('CC(=O)Oc1ccc(-c2ccc(OC(C)=O)cc2)cc1 [4,4''-diacetoxybiphenyl]', 'melting point', '164 °C'),
  ('CC[SiH2]CC [diethylsilane]', 'melting point', '-132 °C'),
  ('O=C1CCC2CCc3ccccc3C2O1 (stereo unspecified) [3,4,4a,5,6,10b-hexahydro-2H-benzo[h]chromen-2-one]', 'melting point', '139 °C'),
  ('O=C(O)CCI [3-iodopropionic acid]', 'melting point', '82 °C'),
  ('O=C(O)c1ccc(Br)o1 [5-bromo-2-furoic acid]', 'melting point', '190 °C'),
  ('C=C(C)c1ccccc1 [2-phenyl-1-propene]', 'melting point', '-23 °C'),
  ('CCOC1OC(C(N)=O)=CCC1Br (stereo unspecified) [3-bromo-2-ethoxy-3,4-dihydro-2H-pyran-6-carboxamidato]', 'melting point', '142 °C'),
  ('SCCS [Ethane-1,2-dithiol]', 'melting point', '-41 °C'),
  ('Clc1cccc(Cl)c1 [1,3-Dichlorobenzene]', 'melting point', '-24.8 °C'),
  ('COC(=O)c1cccc([N+](=O)[O-])c1 [methyl_3-nitrobenzoate]', 'melting point', '80 °C'),
  ('[O-][P+](c1ccccc1)(c1ccccc1)C1C=C(c2ccccc2)C=C(c2ccccc2)O1 (stereo unspecified) [(4,6-diphenyl-2H-pyran-2-yl)(diphenyl)phosphane oxide]', 'melting point', '152 °C'),
  ('CC(=N/O)/C(C)=N\O [(2Z,3Z)-N,N''-Dihydroxybutane-2,3-diimine]', 'melting point', '238 °C');

* * *

Property Name: melting point (°C)

INSERT INTO measurements (compound, measured_number) VALUES
  ('COc1ccccc1OC(=O)c1ccccc1 [2-methoxyphenyl benzoate]', 59),
  ('CN(C)C1=NC(=O)C(c2ccccc2)O1 (stereo not given)', 133),
  ('CC(=O)c1cnn(-c2ccccc2)c1C', 104),
  ('COc1nccnc1NS(=O)(=O)c1ccc(N)cc1', 170),
  ('O=C(O)c1ccc(Cl)cc1Cl', 162);

* * *

Criterion: melting point meeting or surpassing 40 °C. Met: Condition met. Not met: Condition not met.

INSERT INTO measurements (compound, group) VALUES
  ('O=C(O)CCC(=O)c1ccc(-c2ccccc2)cc1', 'Condition met'),
  ('Clc1ccc(Br)c(Cl)c1', 'Condition not met'),
  ('CNC[C@H](O)c1cccc(O)c1', 'Condition met'),
  ('COc1ccc(C(=O)O)cc1 [p-anisic_acid]', 'Condition met'),
  ('COc1ccc(OC)c(C)c1', 'Condition not met'),
  ('Cc1ccccc1CNC(=O)c1ccccc1 [N-(2-methylbenzyl)benzamide]', 'Condition met'),
  ('CC1(C)S[C@@H]2[C@H](NC(=O)[C@H](N)c3ccccc3)C(=O)N2[C@H]1C(=O)O', 'Condition met'),
  ('O=C(O)c1cc(Cl)cc([N+](=O)[O-])c1Cl', 'Condition met');

* * *

Could you label it class 1 if measured melting point is 200 °C or higher, and class 0 otherwise?

INSERT INTO measurements (compound, group) VALUES
  ('CN(C)C=O [N,N-dimethylformamide]', 'class 0'),
  ('COc1cc2nnc(/C=C/C(C)=O)c(-c3ccc(C)o3)c2cc1OC', 'class 0'),
  ('CCCCCOCCCCC [pentyl_ether]', 'class 0'),
  ('O=Cc1ccc(O)cc1O [b-Resorcylaldehyde]', 'class 0'),
  ('NC1=NN(c2ccccc2)CC1 [3-amino-4,5-dihydro-1-phenyl-1h-pyrazole]', 'class 0'),
  ('Cn1c(=O)c2c(ncn2C)n(C)c1=O [caffeine]', 'class 1');

* * *

Consider the reported melting point of an entry and match it to a band in lowest (below 40 °C), middle (40 °C to below 200 °C), highest (200 °C or more)

INSERT INTO measurements (molecule, group) VALUES
  ('CC(=O)c1cc(C)cc(C)c1 [3'',5''-dimethylacetophenone]', 'lowest'),
  ('CC1CCCCN1 (centres undefined) [2-methylpiperidine]', 'lowest'),
  ('Cc1ccc(N2C(=O)C=CC2=O)cc1Cl [1-(3-Chloro-4-methylphenyl)-1H-pyrrole-2,5-dione]', 'middle'),
  ('O=C(O)/C=C/c1cccc2c(Br)ccc([N+](=O)[O-])c12 [(2E)-3-(5-bromo-8-nitronaphthalen-1-yl)prop-2-enoic acid]', 'middle'),
  ('COC(=O)CCC(=O)OC [Dimethyl succinate]', 'lowest'),
  ('OB(O)c1ccc(Cl)cc1Cl [2,4-dichlorobenzeneboronic acid]', 'highest'),
  ('O=C(O)c1ccc(OCc2ccccc2)cc1F [4-benzyloxy-2-fluorobenzoic acid]', 'middle'),
  ('CC(=O)c1ccc(S(=O)(=O)NC(=O)NC2CCCCC2)cc1 [acetohexamide]', 'middle'),
  ('OB(O)c1ccc(C(F)(F)F)cc1 [4-(trifluoromethyl)benzeneboronic acid]', 'highest'),
  ('Oc1cccc(Cl)c1 [3-chlorophenol]', 'lowest'),
  ('CC(=O)NC1C2CCC(C)(C1NC(C)=O)C2(C)C (centres undefined)', 'highest'),
  ('CN(C)c1ccc(N)cc1 [N,N-Dimethylbenzene-1,4-diamine]', 'lowest'),
  ('CCC1(c2ccccc2)C(O)=NC(=O)N=C1O [phenobarbital]', 'middle'),
  ('O=C(Cl)CCCCl [4-chlorobutyryl chloride]', 'lowest'),
  ('[O-][I+3]([O-])([O-])O [Periodic acid]', 'middle'),
  ('Cn1ccc(=O)n(C)c1=O [1,3-dimethyluracil]', 'middle'),
  ('Nc1cc(C(F)(F)F)ccc1Cl [2-chloro-5-(trifluoromethyl)aniline]', 'lowest'),
  ('O=Cc1ccc(O)c(Cl)c1 [3-chloro-4-hydroxybenzaldehyde]', 'middle'),
  ('Cl[C@H]1[C@H](Cl)[C@@H](Cl)[C@H](Cl)[C@H](Cl)[C@H]1Cl [(1R,2R,3R,4R,5S,6S)-1,2,3,4,5,6-Hexachlorocyclohexane]', 'middle');

* * *

Each record is given satisfied if its reported melting point is strictly below 100 °C. Records at or above 100 °C are given not satisfied.

INSERT INTO measurements (compound, group) VALUES
  ('Nc1ccc([N+](=O)[O-])cc1 [4-Nitroaniline]', 'not satisfied'),
  ('[O-][n+]1ccccc1 [pyridine n-oxide]', 'satisfied'),
  ('N#Cc1ccc(C#N)cc1', 'not satisfied'),
  ('CN(C)C(=S)Sc1ccc2ccccc2c1 [naphthalen-2-yl dimethyldithiocarbamate]', 'not satisfied'),
  ('O=C(CO)[C@H](O)[C@@H](O)[C@H](O)CO', 'satisfied'),
  ('COC(=O)CCC(C)C1CCC2C3C=CC4CC(OC(C)=O)CCC4(C)C3CC(OC(C)=O)C12C (stereo not given) [methyl 3,12-bis(acetyloxy)chol-6-en-24-oate]', 'satisfied'),
  ('N#Cc1ccc([N+](=O)[O-])cc1Cl', 'satisfied'),
  ('Cc1cc(Cl)c(C)cc1Cl', 'satisfied'),
  ('O=Cc1ccc2c(c1)OCO2', 'satisfied'),
  ('Cc1cncc(C)n1', 'satisfied');

* * *

Listed here are compounds together with their documented melting point.
Property Name: melting point (°C)

INSERT INTO assay_data (compound, measured_number) VALUES
  ('Oc1ccc(F)cc1Cl', 22),
  ('O=C(O)Cc1ccc(OC(F)(F)F)cc1', 87),
  ('O=C(O)c1ccc2ccccc2c1', 184),
  ('CC/N=c1/nc(Cl)[nH]/c(=N\C(C)C)[nH]1', 177),
  ('CCOC(=O)C(C=Cc1cccc(C=CC(C(=O)OCC)C(=O)OCC)c1)C(=O)OCC', 101),
  ('Cc1cc(Br)ccc1N=C=S [4-bromo-2-methylphenyl isothiocyanate]', 45),
  ('Cc1ccc(C)c(N)c1', 15),
  ('O=C1CCC(N2C(=O)c3ccccc3C2=O)C(=O)N1 (stereo not given) [thalidomide]', 270),
  ('OB(O)c1c(F)cc(F)cc1F', 235),
  ('O=C1CN(/N=C/c2ccc([N+](=O)[O-])o2)C(=O)N1', 263);
